System: isolate 7005-5
Protocol summary: MIC microdilution, fecal isolate 7005-5
Assay type: cell-based
Conditions: read-out: Minimum inhibitory concentration (MIC)
Endpoint: MIC (µg/mL)
API: value field is a number in µg/mL; no unit string.

CC1(C)S[C@@H]2[C@H](NC(=O)[C@H](N)c3ccccc3)C(=O)N2[C@H]1C(=O)O	128

I'm curious: which MIC was measured for `CO/N=C(\C(=O)N[C@@H]1C(=O)N2C(C(=O)O)=C(COC(C)=O)CS[C@H]12)c1csc(N)n1` tested on isolate 7005-5? 32

Another: `Cc1nnc(SCC2=C(C(=O)O)N3C(=O)[C@@H](NC(=O)Cn4cnnn4)[C@H]3SC2)s1` 64

Another: CO/N=C(\C(=O)N[C@@H]1C(=O)N2C(C(=O)[O-])=C(C[N+]3(C)CCCC3)CS[C@H]12)c1csc(N)n1 [Cefepime] 16

---

molecules and their reported MIC
Test system: isolate 7005-13
Protocol summary: MIC microdilution, fecal isolate 7005-13
Type: cell-based
Conditions: read-out: Minimum inhibitory concentration (MIC)
API: value field is a number in µg/mL; no unit string.

Take a look at these entries with their results.
Cc1nnc(SCC2=C(C(=O)O)N3C(=O)[C@@H](NC(=O)Cn4cnnn4)[C@H]3SC2)s1	64
CO/N=C(\C(=O)N[C@@H]1C(=O)N2C(C(=O)O)=C(COC(C)=O)CS[C@H]12)c1csc(N)n1	512
CO/N=C(\C(=O)N[C@@H]1C(=O)N2C(C(=O)[O-])=C(C[N+]3(C)CCCC3)CS[C@H]12)c1csc(N)n1 [Cefepime]	512

What value of MIC has been reported for the following molecule? `CC1(C)S[C@@H]2[C@H](NC(=O)[C@H](N)c3ccccc3)C(=O)N2[C@H]1C(=O)O` 64

---

compounds and their reported MIC
Tested on: isolate 7122-9
Protocol summary: MIC microdilution, fecal isolate 7122-9
Assay type: cell-based
Conditions: read-out: Minimum inhibitory concentration (MIC)
API: value field is a number in µg/mL; no unit string.

Take a look at these entries with their results.
Cc1nnc(SCC2=C(C(=O)O)N3C(=O)[C@@H](NC(=O)Cn4cnnn4)[C@H]3SC2)s1	8
CN(C)[C@@H]1C(O)=C(C(N)=O)C(=O)[C@@]2(O)C(O)=C3C(=O)c4c(O)cccc4[C@@](C)(O)[C@H]3C[C@@H]12	8

Shift focus to the following entry.
What value of MIC has been reported for the following compound? `CC1(C)S[C@@H]2[C@H](NC(=O)[C@H](N)c3ccccc3)C(=O)N2[C@H]1C(=O)O` 16
